Reference source: the supplement of paper PMC8728848

For each entry below, report its glycan array binding signal (z-score) value.
target.desc: Neu5Ac(a2-3)Gal(b1-4)[Fuc(a1-3)]GlcNAc(b1-6)[Gal(b1-3)]GalNAc
assay.method.text: glycan array binding signal (z-score within array); higher = stronger binding
conditions: glycan notation: IUPAC condensed, linker removed
Many of the other results were omitted from the sample, so the strongest signals are more common in it than they were.
Give the figure only, with no unit attached.

Task: Tell me the measured glycan array binding signal (z-score) of PP2A1 (Arabidopsis thaliana) (protein) MFRNQDSKYLIPVQKEAPPVTTLPMKASTVKSPHNCEAILRDADPPISLSSVNLSEQLRSGVFLKPKKQIKYWVDERNSNCFMLFAKNLSITWSDDVNYWTWFTEKESPNENVEAVGLKNVCWLDITGKFDTRNLTPGIVYEVVFKVKLEDPAYGWDTPVNLKLVLPNGKEKPQEKKVSLRELPRYKWVDVRVGEFVPEKSAAGEITFSMYEHAAGVWKKGLSLKGVAIRPKQHHHHHH , please.
Output: -0.268

Task: Now the binder CTLX (Homo sapiens), Q6UXS0 (protein) SLCPLFWMEFKGHCYRFFPLNKTWAEADLYCSEFSVGRKSAKLASIHSWEENVFVYDLVNSCVPGIPADVWTGLHDHRQEGQFEWTDGSSYDYSYWDGSQPDDGVHADPEEEDCVQIWYRPTSALRSWNDNTCSRKFPFVCKIPSLTIH
Output: 4

Task: Now the binder Gal 1 (Canis lupus) (protein) MACGLVASNLSLKPGQCLRVQCEVVPEAKSFVLNLGKDGDNLCLHFNPRFEAHGDVNTIVCNSKDGGAWGEELRESAFPFQPGTVTEVCISFDQADLTIKLPDGYTFKFPNRLNLEAISYLAADGDMKIKCLAFD
Output: -0.244
